study_system: T1, extracellular domain of human CD73 protein (CD73-ECD), C-terminus polyhistidine-tagged (UniProt P21589 27-547)
T1 chain: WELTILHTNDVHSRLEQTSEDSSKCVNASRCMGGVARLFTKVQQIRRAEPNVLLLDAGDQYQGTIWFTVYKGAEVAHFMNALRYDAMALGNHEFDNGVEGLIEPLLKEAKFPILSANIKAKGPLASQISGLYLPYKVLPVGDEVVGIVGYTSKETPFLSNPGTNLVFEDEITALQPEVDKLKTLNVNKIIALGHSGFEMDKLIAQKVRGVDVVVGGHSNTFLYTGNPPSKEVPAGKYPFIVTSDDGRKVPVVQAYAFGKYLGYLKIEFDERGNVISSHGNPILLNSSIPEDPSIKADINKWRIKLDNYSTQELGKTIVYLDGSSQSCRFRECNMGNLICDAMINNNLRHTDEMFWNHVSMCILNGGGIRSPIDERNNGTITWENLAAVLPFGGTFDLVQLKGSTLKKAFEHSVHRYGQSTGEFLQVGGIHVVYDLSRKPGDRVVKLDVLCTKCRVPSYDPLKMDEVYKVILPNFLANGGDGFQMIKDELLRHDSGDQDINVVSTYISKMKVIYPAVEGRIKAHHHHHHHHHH
assay_text: enzyme inhibition; right table

binder | IC50
Hu002c-11 (antibody, V domains shown) VH: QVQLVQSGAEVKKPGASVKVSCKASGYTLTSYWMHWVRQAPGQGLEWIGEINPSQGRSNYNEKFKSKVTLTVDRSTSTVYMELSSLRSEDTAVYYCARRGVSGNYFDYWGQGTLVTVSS VL: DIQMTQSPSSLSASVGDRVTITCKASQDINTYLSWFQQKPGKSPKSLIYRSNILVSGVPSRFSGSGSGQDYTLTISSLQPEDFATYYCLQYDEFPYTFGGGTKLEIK | 0.06 nM
Hu001c-31 (antibody, V domains shown) VH: QVQLVQSGAEVKKPGASVKVSCKASGYTFTNYYIYWVRQAPGQRLEWIGWIYPGNLNIKYNEKFKGRSTLTADKSASTAYMELSSLRSEDTAVYYCARDDNYAWFAYWGQGTLVTVSS VL: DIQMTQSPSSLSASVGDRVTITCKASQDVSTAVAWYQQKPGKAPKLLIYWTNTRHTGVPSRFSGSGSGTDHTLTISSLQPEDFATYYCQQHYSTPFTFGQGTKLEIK | 0.12 nM
Hu002c-12 (antibody, V domains shown) VH: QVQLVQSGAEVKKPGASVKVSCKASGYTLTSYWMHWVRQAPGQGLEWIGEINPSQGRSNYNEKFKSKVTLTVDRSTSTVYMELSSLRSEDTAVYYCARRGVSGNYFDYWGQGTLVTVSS VL: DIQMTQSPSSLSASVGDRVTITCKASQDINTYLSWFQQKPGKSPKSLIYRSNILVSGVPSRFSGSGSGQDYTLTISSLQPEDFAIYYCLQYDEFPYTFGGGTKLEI | 0.057 nM
